Assay Comment: Aqueous solubility assay
Type: physicochemical
Recorded Conditions: aqueous buffer, thermodynamic from solid; pH 6.5 phosphate buffer, room temperature, 18-24 h
Result Type: solubility (µg/mL)
State just the number; it will be interpreted in µg/mL.

Guide cases for solubility, answers given:
1. CCCc1cnc(N2CCC(Oc3ccn(-c4ccc(N5CCC(O)C5=O)c(C)n4)c(=O)c3)CC2)nc1 (stereo not drawn) [Example 5] ... 3
2. Cc1nc(-n2cc(Cl)c(OC3CCN(c4ncc(Cl)cn4)CC3)cc2=O)ccc1N1CC[C@H](O)C1=O [Example 3] ... 1
3. Cc1nc(-n2ccc(OC3CCN(c4ncc(Cl)cn4)CC3)cc2=O)ccc1N1CCC(O)C1=O (stereo not drawn) [Example 6] ... 7
4. Cc1nc(-n2cc(Cl)c(OC3CCN(c4ncc(Cl)cn4)CC3)cc2=O)ccc1N1CC[C@@H](O)C1=O [Example 4] ... 2
5. CCCc1cnc(N2CCC(Oc3cc(=O)n(-c4ccc(N5CCC(O)C5=O)c(C)n4)cc3Cl)CC2)nc1 (stereo not drawn) [Example 2] ... 1

Now consider a different compound.
## Task Given the compound Cc1nc(-n2cc(Cl)c(OC3CCN(c4ncc(Cl)cn4)CC3)cc2=O)ccc1N1CCC(O)C1=O (stereo not drawn) [Example 1] , what is its reported solubility?
## Result 4

---

Property: inhibition at 10 µM; scope: individual compounds
Tested On: sodium channel SCN5A (Homo sapiens (Human))
Sequence (Q14524 whole entry): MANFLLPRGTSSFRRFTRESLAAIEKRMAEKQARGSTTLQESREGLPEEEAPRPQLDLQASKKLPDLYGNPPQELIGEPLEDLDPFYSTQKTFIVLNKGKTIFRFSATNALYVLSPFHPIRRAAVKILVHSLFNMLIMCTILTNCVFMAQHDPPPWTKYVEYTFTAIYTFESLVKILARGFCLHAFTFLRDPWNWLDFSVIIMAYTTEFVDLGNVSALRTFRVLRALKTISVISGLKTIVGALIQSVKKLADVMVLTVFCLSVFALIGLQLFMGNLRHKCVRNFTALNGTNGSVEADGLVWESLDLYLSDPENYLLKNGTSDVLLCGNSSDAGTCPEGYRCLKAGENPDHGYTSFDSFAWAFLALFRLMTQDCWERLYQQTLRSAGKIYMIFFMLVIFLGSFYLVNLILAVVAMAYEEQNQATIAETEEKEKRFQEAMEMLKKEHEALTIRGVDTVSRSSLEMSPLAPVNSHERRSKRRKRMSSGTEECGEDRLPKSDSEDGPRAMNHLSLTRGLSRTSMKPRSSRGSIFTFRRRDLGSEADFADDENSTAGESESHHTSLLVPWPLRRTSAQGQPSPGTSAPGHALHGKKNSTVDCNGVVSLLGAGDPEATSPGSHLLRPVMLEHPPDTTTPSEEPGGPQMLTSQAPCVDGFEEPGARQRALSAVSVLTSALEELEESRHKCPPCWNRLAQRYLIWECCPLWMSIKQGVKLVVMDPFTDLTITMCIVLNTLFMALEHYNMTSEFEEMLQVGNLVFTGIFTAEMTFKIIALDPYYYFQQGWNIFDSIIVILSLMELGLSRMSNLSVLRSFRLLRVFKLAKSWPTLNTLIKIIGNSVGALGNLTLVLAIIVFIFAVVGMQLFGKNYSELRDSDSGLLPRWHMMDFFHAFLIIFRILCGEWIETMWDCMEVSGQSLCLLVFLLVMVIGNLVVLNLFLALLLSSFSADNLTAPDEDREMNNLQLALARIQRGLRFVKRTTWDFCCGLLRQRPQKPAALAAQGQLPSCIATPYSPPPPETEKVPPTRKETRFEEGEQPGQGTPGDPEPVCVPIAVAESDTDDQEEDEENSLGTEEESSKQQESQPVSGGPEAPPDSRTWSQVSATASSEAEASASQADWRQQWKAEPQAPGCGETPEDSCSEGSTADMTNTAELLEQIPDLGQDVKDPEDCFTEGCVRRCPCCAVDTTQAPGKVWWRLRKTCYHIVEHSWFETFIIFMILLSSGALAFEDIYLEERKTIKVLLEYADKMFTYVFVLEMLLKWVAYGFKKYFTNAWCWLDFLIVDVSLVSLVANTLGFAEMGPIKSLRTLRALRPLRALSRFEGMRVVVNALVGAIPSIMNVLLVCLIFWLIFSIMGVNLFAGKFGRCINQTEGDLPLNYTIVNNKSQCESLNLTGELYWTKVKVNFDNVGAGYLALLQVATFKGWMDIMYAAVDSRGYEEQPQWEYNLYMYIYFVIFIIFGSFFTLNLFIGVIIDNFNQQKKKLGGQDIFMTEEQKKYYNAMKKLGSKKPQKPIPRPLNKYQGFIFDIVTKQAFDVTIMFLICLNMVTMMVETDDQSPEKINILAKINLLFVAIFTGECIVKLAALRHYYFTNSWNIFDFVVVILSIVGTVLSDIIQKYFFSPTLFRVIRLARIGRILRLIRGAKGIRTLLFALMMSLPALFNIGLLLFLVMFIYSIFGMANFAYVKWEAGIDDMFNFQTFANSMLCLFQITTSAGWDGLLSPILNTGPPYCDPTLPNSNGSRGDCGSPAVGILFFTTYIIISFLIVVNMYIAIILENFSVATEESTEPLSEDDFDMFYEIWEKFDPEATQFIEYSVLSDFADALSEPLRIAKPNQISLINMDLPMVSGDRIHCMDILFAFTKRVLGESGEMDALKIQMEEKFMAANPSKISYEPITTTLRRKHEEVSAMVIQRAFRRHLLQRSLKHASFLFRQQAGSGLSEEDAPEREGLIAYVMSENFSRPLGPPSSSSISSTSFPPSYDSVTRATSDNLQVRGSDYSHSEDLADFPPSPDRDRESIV
Assay Comment: Patch clamp electrophysiology assay, sodium channel
Format: cell-based
Recorded Conditions: pH 7.4, 10 μM, 1 Hz, HEK293; read-out: Na % Inhibition
State just the number; it will be interpreted in %.

1) Cc1nc(-n2cc(Cl)c(OC3CCN(c4ncc(Cl)cn4)CC3)cc2=O)ccc1N1CC[C@@H](O)C1=O ... 6

Now consider a different compound.
## Task Given the compound Cc1nc(-n2cc(Cl)c(OC3CCN(c4ncc(Cl)cn4)CC3)cc2=O)ccc1N1CC[C@H](O)C1=O , what is its reported inhibition at 10 µM?
## Result 14

---

Assay Comment: Compound bioavailability assay in rats
Type: in vivo
Recorded Conditions: male, Sprague-Dawley, plasma; rat, oral, 2 mg/kg as a microsuspension
Result Type: bioavailability (%)
State just the number; it will be interpreted in %.

## Task Given the molecule Cc1nc(-n2cc(Cl)c(OC3CCN(c4ncc(Cl)cn4)CC3)cc2=O)ccc1N1CC[C@@H](O)C1=O , what is its reported bioavailability?
## Result 122

---

Property: inhibition at 10 µM; scope: individual compounds
Tested On: sodium channel SCN5A (Homo sapiens (Human))
Assay Comment: Patch clamp electrophysiology assay, sodium channel
Format: cell-based
Recorded Conditions: pH 7.4, 10 μM, 4 Hz, HEK293; read-out: Na % Inhibition
State just the number; it will be interpreted in %.

1) Cc1nc(-n2cc(Cl)c(OC3CCN(c4ncc(Cl)cn4)CC3)cc2=O)ccc1N1CC[C@@H](O)C1=O ... 7

Now consider a different compound.
## Task Given the compound Cc1nc(-n2cc(Cl)c(OC3CCN(c4ncc(Cl)cn4)CC3)cc2=O)ccc1N1CC[C@H](O)C1=O , what is its reported inhibition at 10 µM?
## Result 23

---

Assay Comment: FaSSIF solubility assay
Format: physicochemical
Recorded Conditions: thermodynamic from solid, FaSSIF buffer, 37° C.
Result Type: solubility at 24 h
Kindly write the number and append the unit.

## Task Given the molecule Cc1nc(-n2cc(Cl)c(OC3CCN(c4ncc(Cl)cn4)CC3)cc2=O)ccc1N1CC[C@@H](O)C1=O [Example 4] , what is its reported solubility at 24 h?
## Result 11 µg/mL

---

Assay Comment: Compound bioavailability assay in rats
Format: in vivo
Recorded Conditions: male, Sprague-Dawley, plasma; rat, oral, 5 mg/kg as a microsuspension
Result Type: bioavailability

## Task Given the compound Cc1nc(-n2cc(Cl)c(OC3CCN(c4ncc(Cl)cn4)CC3)cc2=O)ccc1N1CC[C@H](O)C1=O [Example 3] , what is its reported bioavailability?
## Result 120%

---

Tested On: hERG (Homo sapiens (Human), UniProt Q12809)
Sequence (Q12809 whole entry): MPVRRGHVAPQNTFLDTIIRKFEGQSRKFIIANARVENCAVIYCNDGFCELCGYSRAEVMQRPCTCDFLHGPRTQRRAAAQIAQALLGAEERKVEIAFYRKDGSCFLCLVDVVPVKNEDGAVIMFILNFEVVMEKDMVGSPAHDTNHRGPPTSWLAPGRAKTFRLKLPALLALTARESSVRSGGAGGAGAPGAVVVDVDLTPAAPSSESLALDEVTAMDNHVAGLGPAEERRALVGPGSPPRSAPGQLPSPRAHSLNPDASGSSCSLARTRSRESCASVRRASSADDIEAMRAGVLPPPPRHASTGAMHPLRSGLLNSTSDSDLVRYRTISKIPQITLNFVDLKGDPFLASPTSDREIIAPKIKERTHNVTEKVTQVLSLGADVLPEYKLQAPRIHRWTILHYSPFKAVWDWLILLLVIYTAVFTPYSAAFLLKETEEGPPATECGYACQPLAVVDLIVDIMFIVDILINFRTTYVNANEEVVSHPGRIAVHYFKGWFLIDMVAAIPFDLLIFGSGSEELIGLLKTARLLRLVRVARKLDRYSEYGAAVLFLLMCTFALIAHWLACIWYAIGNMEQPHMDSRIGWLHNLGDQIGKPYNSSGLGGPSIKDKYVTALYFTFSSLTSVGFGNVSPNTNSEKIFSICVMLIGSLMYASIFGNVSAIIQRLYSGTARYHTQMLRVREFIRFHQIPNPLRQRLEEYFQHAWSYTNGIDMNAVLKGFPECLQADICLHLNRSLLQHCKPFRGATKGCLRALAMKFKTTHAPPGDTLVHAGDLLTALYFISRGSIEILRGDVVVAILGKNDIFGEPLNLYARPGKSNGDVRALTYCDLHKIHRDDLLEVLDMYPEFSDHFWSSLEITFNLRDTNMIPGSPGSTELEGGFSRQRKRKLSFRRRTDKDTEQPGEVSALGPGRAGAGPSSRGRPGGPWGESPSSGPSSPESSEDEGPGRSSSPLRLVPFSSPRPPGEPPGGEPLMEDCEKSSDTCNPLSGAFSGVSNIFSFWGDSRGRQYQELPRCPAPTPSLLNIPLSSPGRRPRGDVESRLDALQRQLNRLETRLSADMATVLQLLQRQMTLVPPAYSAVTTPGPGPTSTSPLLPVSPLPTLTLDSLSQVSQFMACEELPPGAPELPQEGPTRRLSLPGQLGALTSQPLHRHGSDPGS
Assay Comment: Patch clamp electrophysiology assay, hERG
Type: cell-based
Recorded Conditions: HEK293 cells stably expressing hERG, pH 7.4
Property: inhibition at 30 µM; scope: individual compounds
Kindly write the number and append the unit.

1. Cc1nc(-n2cc(Cl)c(OC3CCN(c4ncc(Cl)cn4)CC3)cc2=O)ccc1N1CC[C@H](O)C1=O ... 33%

Now consider a different compound.
## Task Given the compound Cc1nc(-n2cc(Cl)c(OC3CCN(c4ncc(Cl)cn4)CC3)cc2=O)ccc1N1CC[C@@H](O)C1=O , what is its reported inhibition at 30 µM?
## Result 40%

Attribution: patent US9174965B2
